Entry source: paper PMC11855827

Please go through the items and note down their inhibition at 110 µM.
test system: C. elegans; assay: microbe, parasite or virus in culture; conditions: Caenorhabditis elegans, 24 h, read-out: Percentage of motility inhibition 24 h, Table S2, C. elegans SS assay, 110 μM, 24 h, averages of 4 data points
Answers are plain numbers, in %.

As a guide, the following entries are already answered.
>>> df
                                   compound  measvalue
0  O=C(/C=C/c1ccc(O[C@@H]2O[C@H](CO)[C@@H](O)[C@H](O)[C@H]2O)cc1)c1ccc(O)cc1O [Isoliquiritin]          2
1  C[C@H](O)[C@H](O)[C@H]1CNc2nc(N)[nH]c(=O)c2N1 [Tetrahydrobiopterin]          3
2         CCCCCCCCCCCCCCCCO [1-Hexadecanol]          0
3  CC/C=C\C/C=C\C/C=C\C/C=C\C/C=C\CCCC(=O)O [Eicosapentaenoic Acid]          4

Okay, here is my list. What is inhibition at 110 µM for each of these?
1. CC[C@H]1C[C@@H]2CN3CCc4c([nH]c5ccccc45)[C@](C(=O)OC)(C2)[C@H]13 [Coronaridine]
2. Oc1c(Cl)cc(Cl)cc1Sc1cc(Cl)cc(Cl)c1O [Bithionol]
3. C=C[C@H]1CN2CC[C@]3(C(=O)Nc4ccccc43)[C@@H]2C[C@@H]1/C(=C\OC)C(=O)OC [Corynoxeine]

Output line:
1: 5; 2: 40; 3: 2

Record inhibition at 110 µM for all entries; do not skip any.
1. CCCCCCCC/C=C\CCCCCCCC(=O)O [Oleic acid]
2. COc1ccc(-c2cc(=O)c3c(OC)c(OC)c(OC)cc3o2)cc1OC [Sinensetin]

Output line:
1. 0
2. 0

Provide each entry's inhibition at 110 µM from the list below.
1. O=C(Nc1ccc(O)cc1)c1ccccc1O [Osalmid]
2. C=C(C)[C@@H]1CC[C@]2(CO)CC[C@]3(C)[C@H](CC[C@@H]4[C@@]5(C)CC[C@H](O)C(C)(C)[C@@H]5CC[C@]43C)[C@@H]12 [Betulin]
3. CS(=O)(=O)c1ccc([C@@H](O)[C@@H](CF)NC(=O)C(Cl)Cl)cc1 [Florfenicol]
4. CNC1CCCN(c2c(F)cc3c(=O)c(C(=O)O)cn(C4CC4)c3c2OC)C1 (stereo not shown) [Balofloxacin]

Output line:
1: 1; 2: 0; 3: 9; 4: 20

====

Would you mind telling me the reported inhibition at 110 µM of each entry?
system: C. elegans; assay: microbe, parasite or virus in culture; details: Caenorhabditis elegans, 0 h, read-out: Percentage of motility inhibition 0 h, Table S2, C. elegans SS assay, 110 μM, 0 h, averages of 4 data points
Put down the number, then write its unit next to it.

>>> print(df.to_string())
                                   compound  targetorsystem             parameter  measvalue
0  C[C@]12CC[C@@H]3c4ccc(O)cc4CC[C@H]3[C@@H]1CC[C@@H]2O      C. elegans  inhibition at 110 µM         1%
1  O=C(N/N=C/c1ccc([N+](=O)[O-])o1)c1cc([N+](=O)[O-])cc([N+](=O)[O-])c1O      C. elegans  inhibition at 110 µM         8%

Need inhibition at 110 µM for each of these compounds.
1. NC(=O)c1ccccc1O [Salicylamide]
2. COc1ccc2c3c1O[C@H]1C[C@@H](O)CC[C@]31CCN(C)C2
3. O=c1c2ccccc2nc2n1CCc1c-2[nH]c2ccccc12
4. COC(=O)Nc1nc2ccc(C(=O)c3ccccc3)cc2[nH]1

Output line:
1: 2%; 2: 0%; 3: 0%; 4: 18%
